Source: patent US20210284747A1

Biological target: Full length LIGHT W197A on HEK293FF cells (Homo sapiens (Human), UniProt O43557 1-240)
Sequence (O43557 whole entry W197A): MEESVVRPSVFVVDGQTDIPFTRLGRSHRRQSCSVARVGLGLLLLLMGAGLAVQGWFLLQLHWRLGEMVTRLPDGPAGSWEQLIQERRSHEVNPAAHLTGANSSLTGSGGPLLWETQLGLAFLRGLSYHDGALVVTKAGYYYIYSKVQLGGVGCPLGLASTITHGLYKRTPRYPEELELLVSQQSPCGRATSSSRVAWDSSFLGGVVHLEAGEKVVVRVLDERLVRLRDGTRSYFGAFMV
Test: flow cytometry, HEK293FF, mAb at EC50
Procedure: The day of transfection the cells were seeded in a 24-well plate at 0.6×10⁶ cells/well. […] The cells were then washed as above, resuspended in 100 μl of FACS buffer and binding of the antibodies to the constructs was measured using flow cytometry and a total of 10,000 cells were acquired for each sample. […]
readout type: % of WT binding (%)
Write the answer as a number in %, unit excluded.

Guide cases for % of WT binding, answers given:
binder	value units	% of WT binding
3A07 chimeric IgG4 mAb (antibody, V domains shown, Chimeric human IgG4 (S-to-P, L-to-E) with human CL, as m1; also called Parental 3A07) VH: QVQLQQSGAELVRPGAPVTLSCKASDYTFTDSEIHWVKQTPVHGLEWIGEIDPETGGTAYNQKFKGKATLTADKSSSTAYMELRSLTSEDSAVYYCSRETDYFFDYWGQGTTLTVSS VL: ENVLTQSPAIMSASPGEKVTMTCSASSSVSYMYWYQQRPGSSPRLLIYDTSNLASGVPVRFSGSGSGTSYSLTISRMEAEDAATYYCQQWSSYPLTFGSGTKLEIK	%	1
3C10 chimeric IgG4 mAb (antibody, V domains shown, Chimeric human IgG4 (S-to-P, L-to-E) with human CL, as m1; also called Parental 3C10) VH: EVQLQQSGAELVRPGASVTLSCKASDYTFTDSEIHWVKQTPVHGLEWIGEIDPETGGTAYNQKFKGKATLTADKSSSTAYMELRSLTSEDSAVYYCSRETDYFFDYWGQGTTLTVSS VL: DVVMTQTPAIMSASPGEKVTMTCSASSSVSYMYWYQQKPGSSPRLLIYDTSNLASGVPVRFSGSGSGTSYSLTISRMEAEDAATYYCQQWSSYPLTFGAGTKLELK	%	0

Switching to the query record.
Incoming: Dear colleague, I am looking for the recorded % of WT binding of the following binder: 3B04 chimeric IgG4 mAb (antibody, V domains shown, also called Parental 3B04) VH: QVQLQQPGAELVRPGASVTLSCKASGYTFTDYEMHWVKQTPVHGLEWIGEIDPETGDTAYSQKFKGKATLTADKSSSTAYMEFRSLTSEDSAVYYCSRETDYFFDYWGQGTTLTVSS VL: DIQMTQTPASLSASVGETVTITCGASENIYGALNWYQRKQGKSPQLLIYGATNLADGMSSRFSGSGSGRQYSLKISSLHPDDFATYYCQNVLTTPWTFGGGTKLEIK
Outgoing: 0
